- assay.procedure: chemical genetic growth profiling, strain panel (AID 1159580);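 also: tested at 20 µM; growth read once vehicle control cultures reached saturation at 30 °C; 1 = growth at the plate median or of vehicle wells; lower values mean less growth of the strain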
- measurement.context: S. cerevisiae deletion strains, growth OD, locus YPL106C, strain sse1, hits give low values
Out of some 5,500 compounds screened, about 2,000 (36%) were called active. Inconclusive results (about 18%) are left out. The list shows a part of the results.
measured.metric: normalized growth

Reference set (6 entries):
CC(CCc1ccccc1)NCC(O)c1ccc(O)c(C(N)=O)c1 (stereo unspecified) : 1.01 (inactive)
CN(C)[C@@H]1C(=O)C(C(N)=O)=C(O)[C@@]2(O)C(=O)C3=C(O)c4c(O)ccc(Cl)c4[C@@H](O)[C@H]3C[C@@H]12 : 0.911 (inactive)
CN(C)CCCN1c2ccccc2Sc2ccc(Cl)cc21 : 0.109 (active)
N[C@@H](CCC(=O)N[C@@H](CS)C(=O)NCC(=O)O)C(=O)O : 0.985 (inactive)
CN[C@@H]1[C@H](O)[C@H](NC)[C@H]2O[C@@]3(O)C(=O)C[C@@H](C)O[C@H]3O[C@@H]2[C@H]1O : 0.991 (inactive)
CNNC : 1 (inactive)

Prompt: In one line, give reported normalized growth of the entry N=C(N)N .
Completion: 1.01 (inactive)

Prompt: Return normalized growth (reported value) for this molecule: Cc1cc(=O)oc2cc(O)cc(O)c12
Completion: 0.927 (inactive)

Prompt: Kindly indicate its recorded normalized growth. Item: C/C=C\C1=C(C(=O)O)N2C(=O)C(NC(=O)C(N)c3ccc(O)cc3)C2SC1 (stereo unspecified)
Completion: 1 (inactive)

Prompt: Respond only with normalized growth recorded for CO[C@H]1CC(O[C@@H]2/C(C)=C/C[C@@H]3C[C@@H](C[C@]4(CC[C@H](C)[C@@H](C5CCCCC5)O4)O3)OC(=O)[C@@H]3C=C(C)/C(=N\O)[C@H]4OC/C(=C\C=C\[C@@H]2C)[C@]43O)O[C@@H](C)C1O (stereo partly specified)
Completion: 0.62 (active)

Prompt: Quote normalized growth reported for CN(C)CCCN1c2ccccc2CCc2ccc(Cl)cc21 please.
Completion: 1.02 (inactive)

Prompt: Tell us which normalized growth value is on record for Cc1cc(=O)oc2cc(O)c(O)cc12
Completion: 0.978 (inactive)

Prompt: Could you please provide reported normalized growth for CN(C)CCCN1c2ccccc2CCc2ccccc21 ? Thanks!
Completion: 0.996 (inactive)

Prompt: Tell me its normalized growth given COC(=O)/C(=C1\OC(=O)C(c2ccccc2)=C1O)c1ccccc1 as the entry.
Completion: 0.966 (inactive)

Prompt: Output normalized growth of CCN(CC)CCOCCOC(=O)C1(c2ccccc2)CCCC1
Completion: 0.995 (inactive)

Prompt: Report normalized growth for CCN1CCN(C(=O)NC(C(=O)N[C@@H]2C(=O)N3[C@@H]2SC(C)(C)[C@@H]3C(=O)O)c2ccccc2)C(=O)C1=O (stereo partly specified)
Completion: 1.02 (inactive)

Prompt: Complete the entry with normalized growth for COc1cc(C(C)=O)cc(OC)c1O
Completion: 1.06 (inactive)

Prompt: For the molecule CC(=O)Oc1ccc(C(c2ccc(OC(C)=O)cc2)c2ccccn2)cc1 , give its reported normalized growth.
Completion: 1.03 (inactive)

Prompt: Tell me its normalized growth given CN(C)[C@@H]1C(=O)C(C(N)=O)=C(O)[C@@]2(O)C(=O)C3=C(O)c4c(O)cccc4[C@@](C)(O)[C@H]3[C@H](O)[C@@H]12 as the entry.
Completion: 1.02 (inactive)

All figures here come from PubChem BioAssay AID1159580.
